Species: Bos taurus
Assay: Displacement of ethidium from calf thymus DNA by fluorimetric method
For each record, write down the corresponding C50.

In: Need C50, item `Br.C/C(=N\NC(=N)N)c1ccc(C(=O)Nc2ccc(Nc3cc[n+](C)c4cc(N)ccc34)cc2)cc1.[Br-]`
Out: 0.35 µM

In: Please look up its C50: `C[n+]1ccc(Nc2ccc(NC(=O)c3ccc(Nc4cc[n+](C)c5ccc(N)cc45)cc3)cc2)cc1.[Br-].[Br-]`
Out: 0.66 µM

In: Which C50 value belongs to `C[n+]1cccc2cc(NC(=O)c3ccc(C(=O)Nc4ccc(NC(=O)c5ccc6c(ccc[n+]6C)c5)cc4)cc3)ccc21.Cc1ccc(S(=O)(=O)[O-])cc1.Cc1ccc(S(=O)(=O)[O-])cc1` ?
Out: 0.3 µM

In: // lookup C50 for `C[n+]1c2ccccc2c(Nc2ccc(NC(=O)Nc3ccc(NC(=N)NC(=N)N)cc3)cc2)c2ccc(N)cc21.Cl.[Cl-]`
Out: 0.09 µM

In: # get_value(readout='C50', item= `CCCC[n+]1cccc(C(=O)Nc2ccc(NC(=O)c3ccc(C(=O)Nc4ccc5c(ccc[n+]5CCCC)c4)cc3)cc2)c1.Cc1ccc(S(=O)(=O)[O-])cc1.Cc1ccc(S(=O)(=O)[O-])cc1` )
Out: 2.5 µM

In: If you can, please state the reported C50 value of `C[n+]1ccc(Nc2ccc(NC(=O)CCCCCC(=O)Nc3ccc(Nc4cc[n+](C)cc4)cc3)cc2)cc1.[Br-].[Br-]` .
Out: 42 µM
